system: HCC-2998 colon; assay: NCI tumour cell line growth inhibition, 48 h
# reported TGI; entries follow
Only the number, expressed in µM, is required.

COc1ccc(C(=O)Nc2ncc(Cc3ccc(F)cc3)s2)cc1
2.49

Switching to the query record.
In: Report TGI for O=C1C2C(C(=O)[N]1[Hg][c]1ccccc1)C1(Cl)C(Cl)=C(Cl)C2(Cl)C1(Cl)Cl (stereo not given) please.
Out: 4.1

----------
tested on: NCI/ADR-RES ovarian; assay: NCI tumour cell line growth inhibition, 48 h
# reported TGI; entries follow

Study these solved cases before continuing.
O=C1c2ccccc2C(=O)N1C(=S)c1ccccc1
> 100 µM
COc1cc(Nc2ncc3c(n2)-c2ccc(Cl)cc2C(c2c(F)cccc2OC)=NC3)ccc1C(=O)O
> 100 µM
O=c1c2cc(-c3ccccc3)cnc2sn1-c1ccc([N+](=O)[O-])cc1
> 100 µM

In: Report TGI for c1ccc(Cn2cc3c(c2)-c2oncc2CC3)cc1 please.
Out: 7.22 µM

In: Report TGI for C=C(C)CC1=C(C(=S)NCCO[Si](C)(C)C(C)(C)C)C(OCC)(OCC)C1=O please.
Out: > 100 µM

----------
# reported TGI; entries follow
test system: BT-549 breast; test: NCI tumour cell line growth inhibition, 48 h

Study these solved cases before continuing.
O=C1c2ccccc2C2(c3ccc(Cl)cc3)NCc3ccccc3CN12 (stereo not drawn)
> 100 µM
N=C(N)n1[nH]c2c(c1=O)CCC2
> 100 µM
O=C(Cc1ccccc1)Nc1nnc(CCSCCc2nnc(NC(=O)Cc3ccccc3)s2)s1
74.8 µM
COc1cc(Nc2ncc3c(n2)-c2ccc(Cl)cc2C(c2c(F)cccc2OC)=NC3)ccc1C(=O)O
> 81.1 µM
CC(=O)OCCC/C(=C\c1ccc2ccccc2c1)[N+](=O)[O-]
3.42 µM

In: Report TGI for Cc1sc2nc(-c3ccccn3)c(/C=N/N=C(N)N)n2c1C please.
Out: 4.39 µM

In: Report TGI for Brc1cccc(C2(CCCC3(c4cccc(Br)n4)OCCO3)OCCO2)n1 please.
Out: > 100 µM

In: Report TGI for O=[N+]([O-])c1cccc2nc3ccccc3c(NCCC[N+]3([O-])CCCCC3)c12 please.
Out: 1.53 µM

In: Report TGI for O=C(NCCO)c1c(O)c2ccccc2[nH]c1=O please.
Out: > 100 µM

In: Report TGI for N/C(=N\OC(=O)NC(Cl)=C(Cl)Cl)c1cc(C(F)(F)F)cc(C(F)(F)F)c1 please.
Out: 41.2 µM

In: Report TGI for COc1ccc(OC)c(CNc2ccc(O)c(C(=O)NCCc3ccc(F)cc3)c2)c1 please.
Out: 73.6 µM

In: Report TGI for COc1cc(C2c3cc4c(cc3C3OC(=O)C2C3CO)OCO4)cc(OC)c1OC (stereo not drawn) please.
Out: 9.27 µM

----------
tested on: KM20L2 colon; assay: NCI tumour cell line growth inhibition, 48 h
# reported TGI; entries follow

Study these solved cases before continuing.
O=C(c1ccc(Cl)cc1)N(C(=S)N1CCN(c2ccccn2)CC1)c1ccccc1
> 100 µM
CC1SC2=NC3=C(c4ccccc4C3=O)C(c3ccc(Br)cc3)N2C1=O (centres undefined)
> 100 µM
CC(C)C(/C=C/c1ccccc1)=N\NC(=O)N/N=C(/C=C/c1ccccc1)C(C)C
93.6 µM
Cc1cc(=O)c2c(O)c3c(O)cc(O)c4c5c(O)cc(O)c6c(O)c7c(=O)cc(C)c8c1c2c(c34)c(c65)c78
49.2 µM
CNC1=C(C)C(=O)C(C)=C(C(C)(C)CC(=O)n2cc(F)c(=O)[nH]c2=O)C1=O
> 100 µM

In: Report TGI for COc1ccc(C2C(C(=O)O)=C(COC(C)=O)Oc3cc4c(cc32)OCO4)cc1 (centres undefined) please.
Out: > 100 µM

In: Report TGI for CC(=O)c1ccc(NC(=O)/C(=N\NC(N)=O)C(C#N)CC(C)(C)C=O)cc1 (centres undefined) please.
Out: > 100 µM

In: Report TGI for O=C(N/C(=C\c1ccc([N+](=O)[O-])cc1)c1nc2[nH]c(=S)[nH]c(=O)c2[nH]1)c1ccccc1 please.
Out: > 100 µM

In: Report TGI for CCCNC(=O)c1cc2ccccc2cc1C(=O)OC please.
Out: > 100 µM
